Reference source: ChEMBL document CHEMBL4689842

system: HEK-293T; assay: Multiplex assay against HEK293T; type: toxicity, cell-based; settings: human, 24 h, 1 µM, compound concentration 1 uM, replicate 1
measured_metric: Population Fragmented Nuclei (%)
Numbers only, in %.

As a guide, the following entries are already answered.
compound: Cn1cc(-c2[nH]c3cc(NC(=O)[C@H](N)C4CCCCC4)cc4c3c2C=NNC4=O)cn1
assay_system: HEK-293T
Population Fragmented Nuclei (%): 13
//
compound: CN(C)CC#Cc1ccc(OCCCc2sc(N3CCc4cccc(C(=O)Nc5nc6ccccc6s5)c4C3)nc2C(=O)O)c(F)c1 [A-1155463]
assay_system: HEK-293T
Population Fragmented Nuclei (%): 11
//
compound: CCN(CC)CCCCNc1ncc2cc(-c3cc(OC)cc(OC)c3)c(NC(=O)NC(C)(C)C)nc2n1 [PD-173074]
assay_system: HEK-293T
Population Fragmented Nuclei (%): 84

Give me Population Fragmented Nuclei (%) for each of these compounds, listed below.
1. CN1CCN(c2ccc(OC(F)(F)F)c(Nc3ncc4c(n3)-c3c(c(C(N)=O)nn3CCO)CC4)c2)CC1 [ONVANSERTIB]
2. OC1(c2ccc(Cl)cc2)CCN(Cc2c[nH]c3ccccc23)CC1
3. CC(C)(O)CNc1ncc(-c2ccnc(Nc3ccnc(Cl)c3)n2)c(CC2CC2)n1
4. C=CC(=O)Nc1cccc(C(=O)Nc2ccc(Nc3cc(-c4[nH]c(SC)nc4C)ccn3)cc2)c1
5. c1cn2cc(-c3ccc4cn[nH]c4c3)nc(Nc3ccc(N4CCOCC4)cc3)c2n1 [ENTOSPLETINIB]
6. CNc1nc(NCc2ccc(NS(C)(=O)=O)cc2Cl)cc(-c2ccccn2)n1
7. Cl.N#Cc1ccc2[nH]cc(CCCCN3CCN(c4ccc5oc(C(N)=O)cc5c4)CC3)c2c1 [VILAZODONE HYDROCHLORIDE]
8. Cc1[nH]c(/C=C2\C(=O)Nc3ccc(S(=O)(=O)N(C)c4cccc(Cl)c4)cc32)c(C)c1C(=O)N1CCN(C)CC1

*A*
1. 16
2. 22
3. 12
4. 15
5. 6
6. 16
7. 6
8. 11

Give me Population Fragmented Nuclei (%) for each of these compounds, listed below.
1. O=C1NCN(c2ccccc2)C12CCN(CCCOc1ccc(F)cc1)CC2 [SPIRAMIDE]
2. C=CC(=O)Nc1cc2c(Nc3ccc(F)c(Cl)c3)ncnc2cc1OCCCN1CCOCC1.Cl.Cl [CANERTINIB DIHYDROCHLORIDE]
3. CN1CCC[C@@H]1CCO[C@](C)(c1ccccc1)c1ccc(Cl)cc1.O=C(O)/C=C/C(=O)O [CLEMASTINE FUMARATE]

*A*
[13, 21, 12]

Give me Population Fragmented Nuclei (%) for each of these compounds, listed below.
1. CN1CCCC(n2nc(Cc3ccc(Cl)cc3)c3ccccc3c2=O)CC1.Cl (configuration not stated) [AZELASTINE HYDROCHLORIDE]
2. Cc1c(-c2ccc(O)cc2)n(Cc2ccc(OCCN3CCCCCC3)cc2)c2ccc(O)cc12 [BAZEDOXIFENE]

*A*
1. 8
2. 13

---

tested on: Fibroblast; assay: Multiplex assay against human fibroblast; assay type: toxicity, cell-based; conditions: 12 h, 10 µM, compound concentration 10 uM, replicate 1
measured_metric: Population Tubulin-Different-Phenotype (%)
One number for each entry, in %.

As a guide, the following entries are already answered.
compound: Cn1cc(-c2[nH]c3cc(NC(=O)[C@H](N)C4CCCCC4)cc4c3c2C=NNC4=O)cn1
unit_symbol: %
reported: 43
--
compound: CN1CCCC(n2nc(Cc3ccc(Cl)cc3)c3ccccc3c2=O)CC1.Cl (stereo not given) [AZELASTINE HYDROCHLORIDE]
unit_symbol: %
reported: 93
--
compound: CC[C@H](C)C(=O)O[C@H]1C[C@@H](C)C=C2C=C[C@H](C)[C@H](CC[C@@H]3C[C@@H](O)CC(=O)O3)[C@H]21
unit_symbol: %
reported: 42

Give me Population Tubulin-Different-Phenotype (%) for each of these compounds, listed below.
1. COc1cc2nccc(Oc3ccc(NC(=O)Nc4cc(C)on4)c(Cl)c3)c2cc1OC.O
2. Cc1nc(Nc2n[nH]c3c2CN(C(=O)N[C@H](CN(C)C)c2ccccc2)C3(C)C)c2sccc2n1
3. CC(C)NCC(O)COc1ccc(CCOCC2CC2)cc1.Cl (stereo not given) [BETAXOLOL HYDROCHLORIDE]
4. Cc1cc(C)cc(-c2cnc3cc(Cl)c(-c4cccc(O)c4)cc3c2OCCCN)c1
5. CN1CCN(c2ccc(OC(F)(F)F)c(Nc3ncc4c(n3)-c3c(c(C(N)=O)nn3CCO)CC4)c2)CC1
6. Cc1[nH]c(/C=C2\C(=O)Nc3ccc(S(=O)(=O)N(C)c4cccc(Cl)c4)cc32)c(C)c1C(=O)N1CCN(C)CC1
7. C=CC(=O)Nc1ccc2ncnc(Nc3ccc(OCc4cccc(F)c4)c(Cl)c3)c2c1.Cc1ccc(S(=O)(=O)O)cc1

*A*
1. 77
2. 32
3. 58
4. 100
5. 64
6. 93
7. 27

Give me Population Tubulin-Different-Phenotype (%) for each of these compounds, listed below.
1. CN1CCC[C@@H]1CCO[C@](C)(c1ccccc1)c1ccc(Cl)cc1.O=C(O)/C=C/C(=O)O [CLEMASTINE FUMARATE]
2. CNc1nc(NCc2ccc(NS(C)(=O)=O)cc2Cl)cc(-c2ccccn2)n1
3. c1cn2cc(-c3ccc4cn[nH]c4c3)nc(Nc3ccc(N4CCOCC4)cc3)c2n1
4. CNCc1ccc(-c2cc(-c3nc(-c4ccc(S(=O)(=O)C(C)C)cc4)cnc3N)on2)cc1
5. Cc1csc2c(N[C@@H](C)CN3CCN(S(=O)(=O)c4ccc(Cl)c(Cl)c4)CC3)ncnc12

*A*
[77, 82, 23, 8, 92]

---

tested on: U2OS; experiment: Incucyte cell viability with U2OS; type: toxicity, cell-based; conditions: human, 18 h, 10 µM, compound concentration 10 uM, replicate number 1, timepoint 18 hours; note: filed as whole numbers so only -1 and 0 and 1 occur
For each record, write down the corresponding Growth Rate.
Answers are plain numbers.

compound: CN(C)c1ncnc(-c2ccc3nc(Nc4cc(CN5CCN(C(=O)CC(F)(F)F)CC5)ccn4)[nH]c3c2)c1Cl
Growth Rate: 0

compound: Nc1nc(NCc2ccccc2)nc(-c2ccccc2CO)n1
Growth Rate: 1

compound: CC(=O)C1=C(C)N(c2cccc(C(F)(F)F)c2)C(=O)N[C@H]1c1ccc(C#N)nc1
Growth Rate: 1

compound: O=C(O)c1ccc(-c2coc3ncc(-c4ccccc4)cc23)cc1Cl
Growth Rate: 1

compound: C=C1/C(=C\C=C2/CCC[C@]3(C)[C@@H]([C@H](C)/C=C/C=C/C(O)(CC)CC)CC[C@@H]23)C[C@@H](O)C[C@@H]1O
Growth Rate: 1

compound: O=C(NCCCC1CCCCC1)c1ccc(CNC(=O)c2cnn(-c3ccccc3)c2C(F)(F)F)cc1
Growth Rate: 1

Give me Growth Rate for each of these compounds, listed below.
1. Cc1c(C(=O)NC2CCCCC2)sc2nc3ccc(N)cc3n12.Cl
2. CCc1cc(C(C)=O)c(O)cc1OCCCCCC(C)(C)c1nn[nH]n1
3. CCOCCn1cc(C(=O)Nc2ccc(-n3nc(-c4cccnc4)cc3C(F)(F)F)cn2)ccc1=O
4. Cc1sc2c(c1C)C(c1ccc(Cl)cc1)=N[C@@H](CC(=O)OC(C)(C)C)c1nnc(C)n1-2
5. CSc1ccc(C(=O)N[C@@H]2CCCC[C@@H]2NC(=O)CNC(=O)c2cc(C(F)(F)F)ccc2NC(=O)NC(C)C)cc1
6. N#CC(Cc1ccc(O)cc1)c1ccc(O)cc1 (configuration not stated)
7. CC(C)S(=O)(=O)c1ccc2nccc(Nc3ccc4scnc4c3)c2c1

*A*
1
1
0
0
0
0
0

Give me Growth Rate for each of these compounds, listed below.
1. C[C@H](Cc1cc2c(c(C(N)=O)c1)N(CCCO)CC2)NCCOc1ccccc1OCC(F)(F)F
2. CN(C)CC#Cc1ccc(OCCCc2sc(N3CCc4cccc(C(=O)Nc5nc6ccccc6s5)c4C3)nc2C(=O)O)c(F)c1
3. CN(C)C(=O)c1ccc(-c2cc(C(=O)N[C@@H]3CCc4ccccc43)no2)cc1O

*A*
1. 1
2. 0
3. 0

*Q* Looking for the measured Growth Rate of CCCCN1CCC(COC(=O)c2cc(Cl)c(N)c3c2OCCO3)CC1.Cl , can you help?
*A* 1

---

test system: U2OS; assay: Multiplex assay against U2OS; assay type: toxicity, cell-based; conditions: human, 48 h, 1 µM, compound concentration 1 uM, replicate 2
For each record, write down the corresponding Population Mitotic Cells (%).
Give bare numbers, in %.

compound: CN(C)CC#Cc1ccc(OCCCc2sc(N3CCc4cccc(C(=O)Nc5nc6ccccc6s5)c4C3)nc2C(=O)O)c(F)c1 [A-1155463]
unit_symbol: %
reported: 22
--
compound: C[C@@H](NCCCc1cccc(C(F)(F)F)c1)c1cccc2ccccc12.Cl [CINACALCET HYDROCHLORIDE]
unit_symbol: %
reported: 45
--
compound: Cc1nc(-c2ccc(-c3ccc(C(=O)N4CCc5cc6c(cc54)C4(CCN(C)CC4)CO6)cc3)c(C)c2)no1 [SB-224289]
unit_symbol: %
reported: 50
--
compound: CN1CCN(c2ccc(OC(F)(F)F)c(Nc3ncc4c(n3)-c3c(c(C(N)=O)nn3CCO)CC4)c2)CC1 [ONVANSERTIB]
unit_symbol: %
reported: 46
--
compound: CC(C)(O)CNc1ncc(-c2ccnc(Nc3ccnc(Cl)c3)n2)c(CC2CC2)n1
unit_symbol: %
reported: 50

Give me Population Mitotic Cells (%) for each of these compounds, listed below.
1. COc1ncc(-c2ccc3nccc(-c4ccnnc4)c3c2)cc1NS(=O)(=O)c1ccc(F)cc1F [OMIPALISIB]
2. Cc1cc(C)cc(-c2cnc3cc(Cl)c(-c4cccc(O)c4)cc3c2OCCCN)c1
3. CC(C)NCC(O)COc1ccc(CCOCC2CC2)cc1.Cl (stereo unspecified) [BETAXOLOL HYDROCHLORIDE]
4. Cl.N#Cc1ccc2[nH]cc(CCCCN3CCN(c4ccc5oc(C(N)=O)cc5c4)CC3)c2c1 [VILAZODONE HYDROCHLORIDE]
5. CNc1nc(NCc2ccc(NS(C)(=O)=O)cc2Cl)cc(-c2ccccn2)n1
6. CN(C)C(=O)N[C@H]1CC[C@H](CCN2CCN(c3cccc(Cl)c3Cl)CC2)CC1.Cl [CARIPRAZINE HYDROCHLORIDE]

*A*
52
45
50
60
100
50

Give me Population Mitotic Cells (%) for each of these compounds, listed below.
1. CN1CCC[C@@H]1CCO[C@](C)(c1ccccc1)c1ccc(Cl)cc1.O=C(O)/C=C/C(=O)O [CLEMASTINE FUMARATE]
2. COc1cc(-n2cnc3cc(-c4ccc(Cl)cc4)sc3c2=O)ccc1OCCN1CCCC1
3. CC[C@H](C)C(=O)O[C@H]1C[C@@H](C)C=C2C=C[C@H](C)[C@H](CC[C@@H]3C[C@@H](O)CC(=O)O3)[C@H]21 [LOVASTATIN]
4. OC1(c2ccc(Cl)cc2)CCN(Cc2c[nH]c3ccccc23)CC1
5. COc1cccc([C@@H](C)NCCCc2ccccc2Cl)c1.Cl [TECALCET HYDROCHLORIDE]

*A*
1: 68; 2: 36; 3: 100; 4: 58; 5: 36
